target: Human claudin 18.2 (CLDN18.2), wild-type (human); assay: cell-based or functional assay
Catalogue of EC50 (pM), ADCC Reporter Bioassay (luciferase, Jurkat effector cells) readings, one per entry.
Reply numerically in pM, unit not repeated.

>>> value("72C1B6A3 (HC WT/LC S32A) (antibody, V domains shown) VH: QVQLVQSGAEVKKPGASVKVSCKASGYTFTTYPIEWVRQAPGQRLEWMGNFHPYNDDTKYNEKFKGRVTITRDTSASTAYMELSSLRSEDTAVYYCARRAYGYPYAMDYWGQGTLVTVSS VL: DIVMTQSPDSLAVSLGERATINCKSSQSLLNAGNQKNYLTWYQQKPGQPPKLLIYRASSRESGVPDRFSGSGSGTDFTLTISSLQAEDVAVYYCQNDYIYPYTFGGGTKLEIK")
190
>>> value("72C1B6A3-HC WT-LC N31E (antibody, V domains shown) VH: QVQLVQSGAEVKKPGASVKVSCKASGYTFTTYPIEWVRQAPGQRLEWMGNFHPYNDDTKYNEKFKGRVTITRDTSASTAYMELSSLRSEDTAVYYCARRAYGYPYAMDYWGQGTLVTVSS VL: DIVMTQSPDSLAVSLGERATINCKSSQSLLESGNQKNYLTWYQQKPGQPPKLLIYRASSRESGVPDRFSGSGSGTDFTLTISSLQAEDVAVYYCQNDYIYPYTFGGGTKLEIK")
1650
>>> value("120B7B2 (HC G57D S104A/LC S32A G97A) (antibody, V domains shown) VH: QVQLVQSGAEVKKPGASVKVSCKASGYTFTGYIIQWVRQAPGQRLEWMGFINPYNDDTKYNEQFKGRVTITRDTSASTAYMELSSLRSEDTAVYYCARAYFGNAFAYWGQGTLVTVSS VL: DIVMTQSPDSLAVSLGERATINCKSSQSLLNAGNQKNYLTWYQQKPGQPPKLLIYWASTRESGVPDRFSGSGSGTDFTLTISSLQAEDVAVYYCQNAYYFPFTFGGGTKLEIK")
114

Query block: For 4F11E2 -HC N55Q-LC S32A (antibody, V domains shown) VH: EVQLVESGGGLVQPGGSLRLSCAASGFTFSTFGMHWVRQAPGKGLEWVSYITSGQSPIYFTDTVKGRFTISRDNAKNSLYLQMNSLRAEDTAVYYCARSSYYGNSMDYWGQGTLVTVSS VL: DIVMTQSPDSLAVSLGERATINCRSSQSLLNAGNRKNYLTWYQQKPGQPPKLLIYWASTRESGVPDRFSGSGSGTDFTLTISSLQAEDVAVYYCQNAYSYPFTFGGGTKLEIK , write its EC50 (pM), ADCC Reporter Bioassay (luciferase, Jurkat effector cells).
Result block: 414
